Hello, the source for this data is patent US20240190880A1, in case you need it.

system.tested: ER (Homo sapiens)
Construct: host or cells: T47D and MCF7 human breast cancer cells
method: ER degradation activity, in-cell western blot analysis in T47D cells
Assay type: cell-based
experimental.setup: 16 hours, Table A does not say which cell line (T47D or MCF7), read-out: Potency (DC50)
Measured DC50 of individual entries

[
  {
    "molecule": "O=C1CCC(N2Cc3cc4c(cc3C2=O)CN(C(=O)C2CCN(CC3CN(c5ccc([C@@H]6c7ccc(O)cc7CC[C@@H]6c6ccccc6)cc5)C3)CC2)C4)C(=O)N1 (some centres unmarked)",
    "DC50": "> 100 nM"
  },
  {
    "molecule": "C[C@@H]1Cc2c([nH]c3ccccc23)[C@@H](c2cnc(C3=CCC(C(=O)N4CCC(N5Cc6cc7c(cc6C5)C(=O)N(C5CCC(=O)NC5=O)C7=O)CC4)CC3)nc2)N1CC(F)F (some centres unmarked)",
    "DC50": "> 100 nM"
  },
  {
    "molecule": "C[C@@H]1Cc2cc(O)ccc2[C@@H](c2ccc(N3CCC(C(=O)N4CC(CN5Cc6cc7c(cc6C5)C(=O)N(C5CCC(=O)NC5=O)C7=O)C4)CC3)cn2)N1CC(F)F (some centres unmarked)",
    "DC50": "> 100 nM"
  },
  {
    "molecule": "O=C1CCC(N2C(=O)c3cc4c(cc3C2=O)CN(C[C@H]2CC[C@@H](N3CC(Nc5ccc([C@@H]6c7ccc(O)cc7CC[C@@H]6c6ccccc6)cc5)C3)CC2)C4)C(=O)N1 (some centres unmarked)",
    "DC50": "> 100 nM"
  },
  {
    "molecule": "C[C@@H]1Cc2c([nH]c3ccccc23)[C@@H](c2ccc(C3CCC(C(=O)N4CCC(N5Cc6cc7c(cc6C5)C(=O)N(C5CCC(=O)NC5=O)C7=O)CC4)CC3)cn2)N1CC(F)F (some centres unmarked)",
    "DC50": "10 to 100 nM"
  }
]

Task: Give DC50 for the following molecule: O=C1CCC(N2C(=O)c3cc4c(cc3C2=O)CN(CC(=O)N2CCC3(CC2)CCN(c2ccc([C@@H]5c6ccc(O)cc6CC[C@@H]5c5ccccc5)cc2)CC3)CC4)C(=O)N1 (mixture of isomers) [E 162]
Output: 10 to 100 nM

Task: Give DC50 for the following molecule: C[C@@H]1Cc2c([nH]c3ccccc23)[C@@H](c2ccc(C3CCC(C(=O)N4CCC(N5Cc6cc7c(cc6C5)C(=O)N(C5CCC(=O)NC5=O)C7=O)CC4)CC3)nc2)N1CC(F)F (some centres unmarked)
Output: > 100 nM

Task: Give DC50 for the following molecule: C[C@@H]1Cc2cc(O)ccc2[C@@H](c2c(F)cc(N3CC4(CCN(CC(=O)N5Cc6cc7c(cc6C5)C(=O)N(C5CCC(=O)NC5=O)C7)CC4)C3)cc2F)N1CC(C)(F)F (some centres unmarked)
Output: > 100 nM

Task: Give DC50 for the following molecule: C[C@@H]1Cc2c([nH]c3ccccc23)[C@@H](c2c(F)cc(N3CC(CC(=O)N4Cc5cc6c(cc5C4)C(=O)N(C4CCC(=O)NC4=O)C6)C3)cc2F)N1CC(F)F (some centres unmarked)
Output: > 100 nM

Task: Give DC50 for the following molecule: C[C@@H]1Cc2cc(O)ccc2[C@@H](c2ccc(N3CCC(C(=O)N4CC(CN5Cc6cc7c(cc6C5)C(=O)N(C5CCC(=O)NC5=O)C7=O)C4)CC3)cc2)N1CC(F)F (some centres unmarked)
Output: > 100 nM

Task: Give DC50 for the following molecule: CN(C1CCC(CN2Cc3cc4c(cc3C2)C(=O)N(C2CCC(=O)NC2=O)C4=O)CC1)C1CCN(c2ccc([C@@H]3c4ccc(O)cc4CC[C@@H]3c3ccccc3)cc2)CC1 (some centres unmarked)
Output: > 100 nM

Task: Give DC50 for the following molecule: C[C@@H]1Cc2cc(O)ccc2[C@@H](c2c(F)cc(N3CC4(CN(C(=O)CN5Cc6cc7c(cc6C5)C(=O)N(C5CCC(=O)NC5=O)C7=O)C4)C3)cc2F)N1CC(F)F (some centres unmarked)
Output: < 10 nM

Task: Give DC50 for the following molecule: C[C@@H]1Cc2c([nH]c3ccccc23)[C@@H](c2ccc(N3CCC4(CCN(C(=O)CN5Cc6cc7c(cc6C5)C(=O)N(C5CCC(=O)NC5=O)C7=O)CC4)CC3)cc2)N1CC(F)F (some centres unmarked)
Output: 10 to 100 nM

Task: Give DC50 for the following molecule: O=C1CCC(N2C(=O)c3cc4c(cc3C2=O)CCN(CC(=O)N2CCC3(CC2)CCN(c2ccc([C@@H]5c6ccc(O)cc6CC[C@@H]5c5ccccc5)cc2)CC3)CC4)C(=O)N1 (some centres unmarked)
Output: > 100 nM

Task: Give DC50 for the following molecule: C[C@@H]1Cc2c([nH]c3ccccc23)[C@@H](c2ccc(N3CCC4(CCN(C(=O)CN5Cc6cc7c(cc6C5)C(=O)N(C5CCC(=O)NC5=O)C7=O)CC4)CC3)nc2)N1CC(F)F (some centres unmarked)
Output: 10 to 100 nM
